Attribute: % of enfortumab (Average Max MFI)
Target: T1, human nectin-4 on cells (human, UniProt Q96NY8 32-510)
T1 construct: also called Nectin-4 receptor
T1 sequence: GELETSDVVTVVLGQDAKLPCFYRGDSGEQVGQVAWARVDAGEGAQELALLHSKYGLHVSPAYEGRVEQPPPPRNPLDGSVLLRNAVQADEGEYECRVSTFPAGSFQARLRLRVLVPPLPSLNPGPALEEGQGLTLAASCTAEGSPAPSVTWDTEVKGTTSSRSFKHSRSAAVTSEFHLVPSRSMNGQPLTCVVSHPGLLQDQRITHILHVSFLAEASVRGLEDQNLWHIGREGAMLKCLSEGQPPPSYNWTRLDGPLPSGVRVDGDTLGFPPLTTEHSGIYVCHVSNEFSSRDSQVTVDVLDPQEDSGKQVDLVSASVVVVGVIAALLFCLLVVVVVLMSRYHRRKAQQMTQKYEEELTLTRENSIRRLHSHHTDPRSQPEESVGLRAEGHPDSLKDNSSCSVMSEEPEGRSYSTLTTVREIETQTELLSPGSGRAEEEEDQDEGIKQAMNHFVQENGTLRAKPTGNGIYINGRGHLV
Assay: flow cytometry, SUM190PT cells (high endogenous nectin-4)
Your answer should be a plain number; it is taken to be in %.

# example entries with known answers
[[record]]
binder = "Ab4 (antibody, human IgG1, kappa, L234A L235A, V domains shown, Unconjugated antibody; also called Antibody 4) VH: QVQLQESGPGLVKPSETLSLTCTVSGGSISGYYWSWIRQPPGKGLEWIGYIYYSGSTNYNPSLKSRVTISVDTSKNQFSLKLSSVTAADTAVYYCARLGIFFDAFDIWGQGTLVTVSS VL: DIQLTQSPSFLSASVGDRVTITCRASQGISSYLAWYQQKPGKAPKLLIYAASTLQSGVPSRFSGSGSGTEFTLTISSLQPEDFATYYCQQFNSYPWTFGQGTKVEIKR"
quantity_unit = "%"
reported_result = 97.9

[[record]]
binder = "Ab1a (antibody, human IgG1, kappa, L234A L235A, V domains shown, Unconjugated antibody; also called nectin-4 antibody Ab1a) VH: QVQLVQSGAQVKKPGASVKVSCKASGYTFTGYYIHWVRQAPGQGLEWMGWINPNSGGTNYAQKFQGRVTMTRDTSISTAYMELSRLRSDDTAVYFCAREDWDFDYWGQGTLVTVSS VL: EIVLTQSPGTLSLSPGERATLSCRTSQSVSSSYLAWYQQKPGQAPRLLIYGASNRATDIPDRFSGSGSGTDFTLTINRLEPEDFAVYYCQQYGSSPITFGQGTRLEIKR"
quantity_unit = "%"
reported_result = 55.6

[[record]]
binder = "enfortumab (antibody, V domains shown) VH: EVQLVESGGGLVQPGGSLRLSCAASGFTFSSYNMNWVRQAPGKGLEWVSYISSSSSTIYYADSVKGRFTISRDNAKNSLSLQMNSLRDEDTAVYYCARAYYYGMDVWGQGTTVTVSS VL: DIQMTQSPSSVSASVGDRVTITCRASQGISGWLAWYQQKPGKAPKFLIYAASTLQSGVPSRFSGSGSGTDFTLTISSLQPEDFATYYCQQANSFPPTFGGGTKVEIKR"
quantity_unit = "%"
reported_result = 100


Give the reported % of enfortumab (Average Max MFI) for this binder. Ab5 (antibody, human IgG1, kappa, L234A L235A, V domains shown, Unconjugated antibody; also called Antibody 5; nectin-4 antibody Ab5) VH: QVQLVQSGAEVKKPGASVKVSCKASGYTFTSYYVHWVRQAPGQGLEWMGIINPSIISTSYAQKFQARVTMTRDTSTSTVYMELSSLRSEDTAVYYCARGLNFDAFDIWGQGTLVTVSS VL: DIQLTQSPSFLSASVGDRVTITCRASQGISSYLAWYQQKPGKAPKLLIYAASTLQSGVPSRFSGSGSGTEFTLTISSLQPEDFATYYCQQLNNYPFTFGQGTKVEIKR
145

Give the reported % of enfortumab (Average Max MFI) for this binder. Ab7 (antibody, human IgG1, lambda, L234A L235A, V domains shown, Unconjugated antibody; also called Antibody 7; nectin-4 antibody Ab7) VH: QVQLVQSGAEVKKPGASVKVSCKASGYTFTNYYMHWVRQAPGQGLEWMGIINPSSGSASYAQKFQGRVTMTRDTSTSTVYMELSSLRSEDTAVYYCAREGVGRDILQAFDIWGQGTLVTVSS VL: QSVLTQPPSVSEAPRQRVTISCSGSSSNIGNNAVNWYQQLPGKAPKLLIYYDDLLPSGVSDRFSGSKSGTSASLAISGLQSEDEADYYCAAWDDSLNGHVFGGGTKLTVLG
112

Give the reported % of enfortumab (Average Max MFI) for this binder. Ab3 (antibody, human IgG1, kappa, L234A L235A, V domains shown, Unconjugated antibody; also called Antibody 3; nectin-4 antibody Ab3) VH: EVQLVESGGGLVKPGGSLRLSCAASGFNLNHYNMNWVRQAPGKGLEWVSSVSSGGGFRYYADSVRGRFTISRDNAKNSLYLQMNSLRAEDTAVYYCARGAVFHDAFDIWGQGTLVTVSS VL: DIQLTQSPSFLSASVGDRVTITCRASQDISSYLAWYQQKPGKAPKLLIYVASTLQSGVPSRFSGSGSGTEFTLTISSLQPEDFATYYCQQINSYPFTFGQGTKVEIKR
112

Give the reported % of enfortumab (Average Max MFI) for this binder. Ab6 (antibody, human IgG1, lambda, L234A L235A, V domains shown, Unconjugated antibody; also called Antibody 6; nectin-4 antibody Ab6) VH: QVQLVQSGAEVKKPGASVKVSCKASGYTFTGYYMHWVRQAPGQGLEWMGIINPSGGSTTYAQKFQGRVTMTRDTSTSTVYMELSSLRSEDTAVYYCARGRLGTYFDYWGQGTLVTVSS VL: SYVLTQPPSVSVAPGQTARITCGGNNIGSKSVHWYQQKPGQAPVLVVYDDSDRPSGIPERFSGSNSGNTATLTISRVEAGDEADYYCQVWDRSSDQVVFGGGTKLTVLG
127

Give the reported % of enfortumab (Average Max MFI) for this binder. Ab8 (antibody, human IgG1, lambda, L234A L235A, V domains shown, Unconjugated antibody; also called Antibody 8; nectin-4 antibody Ab8) VH: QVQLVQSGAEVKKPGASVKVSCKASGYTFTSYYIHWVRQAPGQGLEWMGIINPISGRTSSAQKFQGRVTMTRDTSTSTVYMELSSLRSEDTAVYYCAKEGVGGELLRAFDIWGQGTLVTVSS VL: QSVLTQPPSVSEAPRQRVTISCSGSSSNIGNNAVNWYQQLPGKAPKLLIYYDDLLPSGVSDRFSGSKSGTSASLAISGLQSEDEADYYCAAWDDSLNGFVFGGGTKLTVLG
81.9
